Tested on: mice
Assay: Acute toxicity study in mice after intravenous (tail vein) injection of MPPs or MPP-conjugates
Format: in vivo, mice (Kunming species)
Details: iv, rounded values of Table 4
measurementKind: LD50 (mg/kg)
Only the number, expressed in mg/kg, is required.

Examples with their reported LD50 follow.
1. RRRRRRRRRRR [R11, undecapeptide composed purely of arginine residues, …] | 16.5
2. YGRRARRRRRR [CTP, arginine-rich membrane-permeable undecapeptide […]] | 21

We now examine a further sequence.
Query: Specify the recorded LD50 for YGRKKRRQRRR [TAT, arginine-rich membrane-permeable undecapeptide …] , system: mice.
Response: 27

---

Tested on: mice
Assay: Acute toxicity study in mice after intravenous (tail vein) injection of MPPs or MPP-conjugates
Type: in vivo, mice (Kunming species)
Conditions: iv, Bliss method, five males and five females per group, observed up to 14 days, Table 2
measurementKind: LD50 (mg/kg)
Numeric answer only, unit mg/kg assumed.

Example entries and their recorded answers appear below.
1. YGRRARRRRRR [CTP, arginine-rich membrane-permeable undecapeptide […]] | 21.345
2. YGRKKRRQRRR [TAT, arginine-rich membrane-permeable undecapeptide …] | 27.244

Now turn to the next sequence.
Query: Identify measured LD50 associated with RRRRRRRRRRR [R11, undecapeptide composed purely of arginine residues, …]
Response: 16.508
